Origin of measurements: ChEMBL document CHEMBL3877294

experiment: Selectivity ratio for EC90 for HCV genotype-3a NS5A to EC90 for HCV genotype-1a NS5A
METRIC: Selectivity ratio

| COMPOUND | EXPERIMENTAL_RESULT |
| --- | --- |
| CCc1ccc([C@@H]2Oc3cc(-c4cnc([C@@H]5CCCN5C(=O)[C@@H](NC(=O)OC)C(C)C)[nH]4)cc(F)c3-c3cc4cc(-c5cnc([C@@H]6CCCN6C(=O)[C@@H](NC(=O)OC)C(C)C)[nH]5)ccc4n32)s1 | 1 |
| COC(=O)N[C@H](C(=O)N1CCC[C@H]1c1ncc(-c2cc(F)c3c(c2)OC(c2ccc(C4CC4)s2)n2c-3cc3cc(-c4cnc([C@@H]5CCCN5C(=O)[C@@H](NC(=O)OC)C(C)C)[nH]4)ccc32)[nH]1)C(C)C (some centres undefined) | 2 |
| COC(=O)N[C@H](C(=O)N1CCC[C@H]1c1ncc(-c2cc(F)c3c(c2)O[C@@H](c2cnc(C4CC4)s2)n2c-3cc3cc(-c4cnc([C@@H]5CCCN5C(=O)[C@@H](NC(=O)OC)C(C)C)[nH]4)ccc32)[nH]1)C(C)C [RUZASVIR] | 2 |
| CCCc1ncc(C2Oc3cc(-c4cnc([C@@H]5CCCN5C(=O)[C@@H](NC(=O)OC)C(C)C)[nH]4)cc(F)c3-c3cc4cc(-c5cnc([C@@H]6CCCN6C(=O)[C@@H](NC(=O)OC)C(C)C)[nH]5)ccc4n32)s1 (some centres undefined) | 2 |

###

experiment: Half life in dog at 1 mg/kg, iv by LC/MS method; type: ADME, organism-based, Canis lupus familiaris; details: in vivo

| COMPOUND | UNITS_SYMBOL | half-life |
| --- | --- | --- |
| COC(=O)N[C@H](C(=O)N1CCC[C@H]1c1ncc(-c2cc(F)c3c(c2)OC(c2ccc(C4CC4)s2)n2c-3cc3cc(-c4cnc([C@@H]5CCCN5C(=O)[C@@H](NC(=O)OC)C(C)C)[nH]4)ccc32)[nH]1)C(C)C (some centres undefined) | h | 10 |
| CCc1ccc([C@@H]2Oc3cc(-c4cnc([C@@H]5CCCN5C(=O)[C@@H](NC(=O)OC)C(C)C)[nH]4)cc(F)c3-c3cc4cc(-c5cnc([C@@H]6CCCN6C(=O)[C@@H](NC(=O)OC)C(C)C)[nH]5)ccc4n32)s1 | h | 15 |
| COC(=O)N[C@H](C(=O)N1CCC[C@H]1c1ncc(-c2cc(F)c3c(c2)O[C@@H](c2cnc(C4CC4)s2)n2c-3cc3cc(-c4cnc([C@@H]5CCCN5C(=O)[C@@H](NC(=O)OC)C(C)C)[nH]4)ccc32)[nH]1)C(C)C | h | 4 |
| CCCc1ncc(C2Oc3cc(-c4cnc([C@@H]5CCCN5C(=O)[C@@H](NC(=O)OC)C(C)C)[nH]4)cc(F)c3-c3cc4cc(-c5cnc([C@@H]6CCCN6C(=O)[C@@H](NC(=O)OC)C(C)C)[nH]5)ccc4n32)s1 (some centres undefined) | h | 11.5 |

###

Reported clearance values for the following compounds.
experiment: Plasma clearance in dog at 1 mg/kg, iv measured after 24 hrs by LC/MS method; assay type: ADME, organism-based, Canis lupus familiaris
METRIC: clearance (mL/min/kg)

| COMPOUND | METRIC | EXPERIMENTAL_RESULT |
| --- | --- | --- |
| CCc1ccc([C@@H]2Oc3cc(-c4cnc([C@@H]5CCCN5C(=O)[C@@H](NC(=O)OC)C(C)C)[nH]4)cc(F)c3-c3cc4cc(-c5cnc([C@@H]6CCCN6C(=O)[C@@H](NC(=O)OC)C(C)C)[nH]5)ccc4n32)s1 | clearance | 1.7 |
| COC(=O)N[C@H](C(=O)N1CCC[C@H]1c1ncc(-c2cc(F)c3c(c2)O[C@@H](c2cnc(C4CC4)s2)n2c-3cc3cc(-c4cnc([C@@H]5CCCN5C(=O)[C@@H](NC(=O)OC)C(C)C)[nH]4)ccc32)[nH]1)C(C)C | clearance | 1.6 |
| CCCc1ncc(C2Oc3cc(-c4cnc([C@@H]5CCCN5C(=O)[C@@H](NC(=O)OC)C(C)C)[nH]4)cc(F)c3-c3cc4cc(-c5cnc([C@@H]6CCCN6C(=O)[C@@H](NC(=O)OC)C(C)C)[nH]5)ccc4n32)s1 (some centres undefined) | clearance | 1.8 |
| COC(=O)N[C@H](C(=O)N1CCC[C@H]1c1ncc(-c2cc(F)c3c(c2)OC(c2ccc(C4CC4)s2)n2c-3cc3cc(-c4cnc([C@@H]5CCCN5C(=O)[C@@H](NC(=O)OC)C(C)C)[nH]4)ccc32)[nH]1)C(C)C (some centres undefined) | clearance | 1.5 |
